# credit: PubChem BioAssay (NCI)

# Tested on: OVCAR-3 ovarian
# protocol summary: NCI-60 one-dose screen, 48 h
# details: 10 µM unless noted
This is part of a sample that, as a whole, favours compounds with a hit. Of some 83,000 tested, about 20% had one in any assay. Calls of active or inactive are those of the source. The calls were made as follows: active = growth percent below 10; inactive = the rest.
Possible outcomes: True = active, False = inactive

{"molecule": "C=C1C(=O)O[C@H]2[C@H]1CC/C(CNC(=O)c1cc3cc(OC)ccc3[nH]1)=C\\CC[C@@]1(C)O[C@@H]21", "classification": "True"}
{"molecule": "CCN1CCN(Cc2ccc(Cc3ncc(F)c(-c4cc(F)c5nc(C)n(C(C)C)c5c4)n3)nc2)CC1", "classification": "False"}
{"molecule": "O=C1C=CC2(NN=C(c3ccccc3)N2c2ccc(Cl)cc2)c2cccc(O)c21 (stereo not given)", "classification": "False"}
{"molecule": "CC(N)C(Cc1ccc(Cl)cc1)c1ccc(Cl)cc1 (stereo not given)", "classification": "False"}
{"molecule": "Nc1nc(N)c2cc(CNc3ccc(C(=O)NC(CC(=O)O)C(=O)O)cc3)ccc2n1 (stereo not given)", "classification": "False"}
